System: CP252
Assay: qHTS profiling for inhibitors of Plasmodium falciparum proliferation (AID 504749); also: nearly all actives have a fitted effect of over 60% in size
Conditions: P. falciparum in erythrocytes, SYBR Green DNA, 72 h; series mostly up to 28.7 µM
Inconclusive results are not listed. Activity calls are given as the source filed them. Calls follow the shape of the dose curve; as a rule, active = well fitted inhibition curve with a large enough effect; inconclusive = small, poorly fitted or top-dose-only effect; inactive = flat fitted curve, though single readings scatter.
Parameter call: string, one of 1 (yes) (active), 0 (no) (inactive)

// param item: CCn1ccnc1CC1COc2ccccc2O1 (stereo not given) ; yields the recorded call
0 (no)

// param item: Nc1ncn([C@@H]2O[C@H](CO)[C@@H](O)[C@H]2O)c(=O)n1 ; yields the recorded call
0 (no)

// param item: C#CCN(C)CCCOc1ccc(Cl)cc1Cl ; yields the recorded call
0 (no)

// param item: CCN1CCC[C@H]1CNC(=O)c1c(O)c(Cl)cc(Cl)c1OC ; yields the recorded call
0 (no)

// param item: C[N+](C)(C)CCOC(=O)CCC(=O)OCC[N+](C)(C)C ; yields the recorded call
0 (no)

// param item: CCN(CC)CCNC(=O)c1cc(S(C)(=O)=O)ccc1OC ; yields the recorded call
0 (no)

// param item: CC(=O)Oc1cc(C(C)C)c(OCCN(C)C)cc1C ; yields the recorded call
0 (no)

// param item: CCOC(=O)c1cnc2c(cnn2CC)c1NN=C(C)C ; yields the recorded call
0 (no)

// param item: CC(C)(Oc1ccc(CCNC(=O)c2ccc(Cl)cc2)cc1)C(=O)O ; yields the recorded call
0 (no)

// param item: Cc1nc2c([nH]1)c(=O)n(C)c(=O)n2Cc1ccco1 ; yields the recorded call
0 (no)

// param item: CCN(Cc1ccncc1)C(=O)C(CO)c1ccccc1 (stereo not given) ; yields the recorded call
0 (no)

// param item: NCCCNCCSP(=O)(O)O ; yields the recorded call
0 (no)

// param item: CCN(CC)CC(=O)Nc1c(C)cccc1C ; yields the recorded call
0 (no)

// param item: CCN(CC)CCOCCOC(=O)C1(c2ccccc2)CCCC1 ; yields the recorded call
0 (no)

// param item: CC(=O)[C@@]1(O)CC[C@H]2[C@@H]3CCC4=CC(=O)CC[C@]4(C)[C@H]3CC[C@@]21C ; yields the recorded call
0 (no)

// param item: O=C(O)CN(CCOCCOCCN(CC(=O)O)CC(=O)O)CC(=O)O ; yields the recorded call
0 (no)

// param item: CCCCCN(CCCCC)C(=O)C(CCC(=O)O)NC(=O)c1ccc(Cl)c(Cl)c1 (stereo not given) ; yields the recorded call
0 (no)

// param item: CCn1cc(C(=O)O)c(=O)c2cc3c(cc21)OCO3 ; yields the recorded call
0 (no)

// param item: Cc1ccc(Cl)c(Nc2ccccc2C(=O)O)c1Cl ; yields the recorded call
0 (no)

// param item: CCNC(=O)N1CCN(CCCC(c2ccc(F)cc2)c2ccc(F)cc2)CC1 ; yields the recorded call
1 (yes)

// param item: C[N+](C)(C)CCCCCCCCCC[N+](C)(C)C ; yields the recorded call
1 (yes)

// param item: CCCCNc1ccc(C(=O)OCCN(C)C)cc1 ; yields the recorded call
0 (no)

// param item: FC(F)(F)c1ccccc1-n1ccnc1 ; yields the recorded call
0 (no)

// param item: CCN(CC)CCCN(c1ccccc1)C1Cc2ccccc2C1 ; yields the recorded call
1 (yes)

// param item: O=C(O)CP(=O)(O)O ; yields the recorded call
0 (no)

---

Assay: Nrf2 qHTS screen for inhibitors: Validation (AID 493153)
Settings: A549 ARE-Fluc reporter, 18-24 h; measured here: cytotoxicity max response
Results filed as inconclusive are left out.
ENDPOINT: viability change (%)
Provide only the numeric value, understood in %.

Determine from records and report viability change for CCCN(CCC)CCc1cccc2c1CC(=O)N2
1.11

Determine from records and report viability change for CC1=NS(=O)(=O)c2cc(Cl)ccc2N1
3.36

Determine from records and report viability change for CC(=O)OC(C)C[N+](C)(C)C (stereo unspecified)
2.56

Determine from records and report viability change for O=C(O)CCCCCCCC(=O)O
9.01

Determine from records and report viability change for NS(=O)(=O)c1cc2c(cc1Cl)NC(C1CC3C=CC1C3)NS2(=O)=O (stereo unspecified)
12.8

Determine from records and report viability change for C=CCc1ccccc1OCC(O)CNC(C)C (stereo unspecified)
-7.73

Determine from records and report viability change for CNC1(C)C2CCC(C2)C1(C)C (stereo unspecified)
3.39

Determine from records and report viability change for Nc1c2c(nc3ccccc13)CCCC2O (stereo unspecified)
6.52

Determine from records and report viability change for O=C(O)CN(CCOCCOCCN(CC(=O)O)CC(=O)O)CC(=O)O
3.82

Determine from records and report viability change for COC(=O)[C@H]1[C@H]2C[C@@H]3c4[nH]c5cc(OC)ccc5c4CCN3C[C@H]2C[C@@H](OC(=O)c2cc(OC)c(OC)c(OC)c2)[C@@H]1OC
-13.6

Determine from records and report viability change for COCCCC/C(=N\OCCN)c1ccc(C(F)(F)F)cc1
9.56

Determine from records and report viability change for CCN1CCc2nc(N)oc2CC1
-0.627

Determine from records and report viability change for CCCC(C(=O)OCCN(CC)CC)(c1ccccc1)c1ccccc1
-7.4

Determine from records and report viability change for CCCN1C[C@H](CSC)C[C@@H]2c3cccc4[nH]cc(c34)C[C@H]21
2.56

Determine from records and report viability change for N[C@@H](COP(=O)(O)O)C(=O)O
6.46

Determine from records and report viability change for Fc1ccc(C(c2ccc(F)cc2)N2CCN(C/C=C/c3ccccc3)CC2)cc1
-8.46

Determine from records and report viability change for CCOC(=O)C1=C(C)NC(C)=C(C(=O)OC)C1c1cccc([N+](=O)[O-])c1 (stereo unspecified)
9.17

Determine from records and report viability change for Cc1ccc(/C(=C\CN2CCCC2)c2ccccn2)cc1
2.7

Determine from records and report viability change for CN1CCN(CC(=O)N2c3ccccc3C(=O)Nc3cccnc32)CC1
11.6

Determine from records and report viability change for CCc1cccc(N(C)C(N)=Nc2cccc3ccccc23)c1
-0.401

Determine from records and report viability change for CC(C)NCC(O)c1cc(O)cc(O)c1 (stereo unspecified)
7.12

Determine from records and report viability change for COCCc1ccc(OCC(O)CNC(C)C)cc1 (stereo unspecified)
-2.79

Determine from records and report viability change for NC(=O)c1cn(Cc2c(F)cccc2F)nn1
-8.96

Determine from records and report viability change for CNCCC(Oc1ccccc1OC)c1ccccc1 (stereo unspecified)
4.36

Determine from records and report viability change for CCn1ccnc1CC1COc2ccccc2O1 (stereo unspecified)
-1.46

Determine from records and report viability change for CN(C)CC/C=C1\c2ccccc2COc2ccccc21
10.6

---

Tested on: CP286
Assay: qHTS profiling for inhibitors of Plasmodium falciparum proliferation (AID 504749); also: nearly all actives have a fitted effect of over 60% in size
Conditions: P. falciparum in erythrocytes, SYBR Green DNA, 72 h; series mostly up to 28.7 µM
Results filed as inconclusive are left out. Active and inactive are the calls of the source. Calls follow the shape of the dose curve; as a rule, active = well fitted inhibition curve with a large enough effect; inconclusive = small, poorly fitted or top-dose-only effect; inactive = flat fitted curve, though single readings scatter.
Parameter call: string, one of true (1) (active), false (0) (inactive)

// param item: CC(=O)[C@@]1(O)CC[C@H]2[C@@H]3CCC4=CC(=O)CC[C@]4(C)[C@H]3CC[C@@]21C ; yields the recorded call
false (0)

// param item: CCN(Cc1ccncc1)C(=O)C(CO)c1ccccc1 (stereo unspecified) ; yields the recorded call
false (0)

// param item: CN(C)C/C=C(/c1ccc(Br)cc1)c1cccnc1 ; yields the recorded call
false (0)

// param item: CN1CCN(CC(=O)N2c3ccccc3C(=O)Nc3cccnc32)CC1 ; yields the recorded call
false (0)

// param item: CCCOc1ccccc1-c1nc2n[nH]nc2c(=O)[nH]1 ; yields the recorded call
false (0)

// param item: NC(Cc1ccc(Cl)cc1)C(=O)O (stereo unspecified) ; yields the recorded call
false (0)

// param item: Cc1cc(C)c(/C=C2\C(=O)Nc3ccccc32)[nH]1 ; yields the recorded call
false (0)

// param item: O=c1[nH]c(=O)n([C@H]2C[C@H](O)[C@@H](CO)O2)cc1Br ; yields the recorded call
false (0)

// param item: NC(=O)c1cn(Cc2c(F)cccc2F)nn1 ; yields the recorded call
false (0)

// param item: CC(C)(Oc1ccc(CCNC(=O)c2ccc(Cl)cc2)cc1)C(=O)O ; yields the recorded call
false (0)

// param item: CCCC(C(=O)OCCN(CC)CC)(c1ccccc1)c1ccccc1 ; yields the recorded call
true (1)

---

Tested on: DIV14
Experiment: qHTS profiling for inhibitors of Plasmodium falciparum proliferation (AID 504749); also: nearly all actives have a fitted effect of over 60% in size
Conditions: P. falciparum in erythrocytes, SYBR Green DNA, 72 h; series mostly up to 28.7 µM
Inconclusive results are not listed. Activity calls are given as the source filed them. The call rests on the fitted dose curve; in most records, active means well fitted inhibition curve with a large enough effect; inconclusive means small, poorly fitted or top-dose-only effect; inactive means flat fitted curve, though single readings scatter.
Parameter call: string, one of label 1 (active), label 0 (inactive)

// param item: Cc1scc2c1N(C(=O)CN1CCN(C)CC1)c1ccccc1NC2=O ; yields the recorded call
label 0

// param item: C[C@H](CS)C(=O)N1CCC[C@H]1C(=O)O ; yields the recorded call
label 0

// param item: CN(C)CCCN1c2ccccc2Sc2ccc(C(F)(F)F)cc21 ; yields the recorded call
label 1

// param item: COc1cc(C(=O)OCCCN2CCCN(CCCOC(=O)c3cc(OC)c(OC)c(OC)c3)CC2)cc(OC)c1OC ; yields the recorded call
label 1

// param item: CC1=C(C)C(=O)C(CCCCC#CCCCC#CCO)=C(C)C1=O ; yields the recorded call
label 1

// param item: C[N+](C)(C)CCOC(N)=O ; yields the recorded call
label 0
